# measured_target: T1, dog AGR2 (dog, UniProt O95994 21-175 (human entry), limits assumed)
# T1 construct: Whole entry as named
# T1 chain: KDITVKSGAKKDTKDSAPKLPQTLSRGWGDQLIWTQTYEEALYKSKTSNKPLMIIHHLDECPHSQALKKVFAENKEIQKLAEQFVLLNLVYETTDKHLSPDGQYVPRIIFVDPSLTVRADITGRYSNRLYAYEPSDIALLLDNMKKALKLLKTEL
# test_method_notes: ELISA, antigen coated at 1 µg/mL, antibody titrated
value_type: pEC50
Give only the number. pEC50 is defined as minus log10 of concentration in molar units.

For the binder shown here, TH-104 IgG1-LALA humanized monoclonal antibody (antibody, V domains shown) VH: QVQLVQSGSELKKPGASVKVSCKTSGYVFSRSWMNWVRQAPGQGLEWIGWIYPGDGDTNYNGKFKDRFVLSADKSVSTVYLQISSLKAEDTAVYFCARGGYDGSPWLSYWGQGTLVTVSS VL: DIQMTQSPSSLSASVGDRVTITCKASQDINSYLSWFQQKPGKAPKTLIYRANRLVDGVPSRFSGSGSGQDFTLTISSLQPEDIATYYCLQYDEFPFTFGGGTKVEIKR , give the reported pEC50.
9.32

For the binder shown here, TH-115 IgG1-LALA humanized monoclonal antibody (antibody, V domains shown) VH: QVQLLESGGGLVKPGGSLRLSCATSGYVFSRSWMNWIRQAPGQGLEWIGWIYPGDGDTNYNGKVKDRFTLSADKAKNSVYLQMNSLRAEDTAVYFCARGGYDGSPWLSYWGQGTLVTVSS VL: EIVLTQSPDFQSVTPKEKVTITCKASQDINSYLSWFQQKPDQSPKTLIYRANRLVDGVPSRFSGSGSGQDFTLTINSLEAEDAATYYCLQYDEFPFTFGGGTKVEIKR , give the reported pEC50.
9.22

For the binder shown here, TH-101 IgG1-LALA humanized monoclonal antibody (antibody, V domains shown) VH: QVQLVQSGAEVKKPGASVKVSCKTSGYVFSRSWMNWVRQAPGQGLEWIGWIYPGDGDTNYNGKFKDRVTLTADKSTSTVYMELSSLRSEDTAVYFCARGGYDGSPWLSYWGQGTLVTVSS VL: DIQMTQSPSSLSASVGDRVTITCKASQDINSYLSWFQQKPGKAPKTLIYRANRLVDGVPSRFSGSGSGQDFTLTISSLQPEDIATYYCLQYDEFPFTFGGGTKVEIKR , give the reported pEC50.
9.38

For the binder shown here, TH-109 IgG1-LALA humanized monoclonal antibody (antibody, V domains shown) VH: QVQLVQSGSELKKPGASVKVSCKTSGYVFSRSWMNWVRQAPGQGLEWIGWIYPGDGDTNYNGKFKDRFVLSADKSVSTVYLQISSLKAEDTAVYFCARGGYDGSPWLSYWGQGTLVTVSS VL: EIVLTQSPATLSLSPGERATLSCKASQDINSYLSWFQQKPGQAPRTLIYRANRLVDGIPARFSGSGSGQDFTLTISSLEPEDFAVYYCLQYDEFPFTFGGGTKVEIKR , give the reported pEC50.
8.64
